# assayed_system: α-glucosidase (Saccharomyces cerevisiae)
# Sequence (P53341 whole entry): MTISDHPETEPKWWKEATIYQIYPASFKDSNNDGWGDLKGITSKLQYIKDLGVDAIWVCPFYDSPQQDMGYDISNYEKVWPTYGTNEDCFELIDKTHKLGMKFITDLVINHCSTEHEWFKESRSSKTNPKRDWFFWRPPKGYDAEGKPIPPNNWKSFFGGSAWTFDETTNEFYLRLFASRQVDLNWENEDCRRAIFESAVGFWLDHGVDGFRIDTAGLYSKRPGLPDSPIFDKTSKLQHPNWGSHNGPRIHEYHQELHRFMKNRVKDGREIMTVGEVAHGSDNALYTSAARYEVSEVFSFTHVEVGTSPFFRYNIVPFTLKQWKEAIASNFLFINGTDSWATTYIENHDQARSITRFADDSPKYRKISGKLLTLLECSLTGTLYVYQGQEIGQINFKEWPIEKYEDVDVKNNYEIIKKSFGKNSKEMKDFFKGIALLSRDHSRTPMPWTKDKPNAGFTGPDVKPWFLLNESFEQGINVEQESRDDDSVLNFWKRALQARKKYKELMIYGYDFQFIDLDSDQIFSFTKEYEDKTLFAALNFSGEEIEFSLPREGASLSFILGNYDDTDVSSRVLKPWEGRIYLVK
attribute_measured: pKi
Give bare numbers, as −log10 of the molar value.

Field pKi (entry COc1ccc(OC)c(NC(=O)CN2CCN(c3nc4ccccc4cc3/C=N/NC(N)=S)CC2)c1 [Compound 7j] ) reads 4.49
